Source of measurements: ChEMBL document CHEMBL1938301

Test: Clearance in Sprague-Dawley rat at 1 mg/kg, iv
Format: ADME, organism-based
Parameters: dose 1 mg/kg, route intravenous
Conditions: in vivo
measured_endpoint: clearance (mL/min/kg)
Numeric answer only, unit mL/min/kg assumed.

Reported clearance ( O=C1CC(=O)CC(c2cc(C(F)(F)F)cc(C(F)(F)F)c2)C1 ) = 8.4

---

Experiment: Solubility of the compound in phosphate buffer saline after 1 hrs by spectrophotometry
Type: physicochemical
Conditions: phosphate buffered saline
measured_endpoint: solubility at 1 h

# solubility at 1 h (molecule: O=C1CC(=O)CC(c2cc(C(F)(F)F)cc(C(F)(F)F)c2)C1 ) is ≥ 500 µM
